Test system: 361931-004-R-J1-PDC multicell spheroid viability
assay text: Anticancer human tumor 361931-004-R-J1-PDC patient-derived colon adenocarcinoma cell line growth inhibition [PI3K]
test context: curve of first compound; second compound 10 µM
Record form. Attribute: IC50. Fill in for each entry.

Below are worked cases with known answers.
CC(=O)c1c(C)c2cnc(Nc3ccc(N4CCNCC4)cn3)nc2n(C2CCCC2)c1=O + Cc1nc(NC(=O)N2CCCC2C(N)=O)sc1-c1ccnc(C(C)(C)C(F)(F)F)c1 | 56.4 nM
CC1(C)CCC(Nc2ncc(C(F)(F)F)c(-c3c[nH]c4c(P(C)(C)=O)c(C#N)ccc34)n2)CN1 (stereo not given) + Cc1nc(NC(=O)N2CCCC2C(N)=O)sc1-c1ccnc(C(C)(C)C(F)(F)F)c1 | < 31.6 nM
C#Cc1c(F)ccc2cc(O)cc(-c3ncc4c(N5CC6CCC(C5)N6)nc(OCC56CCCN5CC(F)C6)nc4c3F)c12 (stereo not given) + Cc1nc(NC(=O)N2CCCC2C(N)=O)sc1-c1ccnc(C(C)(C)C(F)(F)F)c1 | 219 nM
CNC(=O)c1ccc(N2C(=S)N(c3ccc(C#N)c(C(F)(F)F)c3)C(=O)C2(C)C)cc1F + Cc1nc(NC(=O)N2CCCC2C(N)=O)sc1-c1ccnc(C(C)(C)C(F)(F)F)c1 | > 10000 nM

Ask: Param item = Cn1ncc(Cl)c1-c1cc(C(=O)NC(CN)Cc2cccc(F)c2)sc1Cl (stereo not given) + CC(Nc1ncnc2nc[nH]c12)c1cc2cccc(Cl)c2c(=O)n1-c1ccccc1 ; retrieve measured IC50.
Reply: 2490 nM

----------
Record form. Attribute: viability, T/C. Fill in for each entry.
Tested on: 361931-004-R-J1-PDC multicell spheroid viability
assay text: Anticancer human tumor 361931-004-R-J1-PDC cell line growth inhibition [PI3K];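 note: spheroids exposed to agents for seven days before readout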
test context: second compound 0.316 µM; first compound 0.1 µM; stronger effect = lower value
Answers are plain numbers, in %.

Below are worked cases with known answers.
CC1(C)CCC(Nc2ncc(C(F)(F)F)c(-c3c[nH]c4c(P(C)(C)=O)c(C#N)ccc34)n2)CN1 (stereo unspecified) + CC(Nc1ncnc2nc[nH]c12)c1cc2cccc(Cl)c2c(=O)n1-c1ccccc1 | 106
CCCS(=O)(=O)Nc1ccc(F)c(C(=O)c2c[nH]c3ncc(-c4ccc(Cl)cc4)cc23)c1F + COc1c(OCCCN2CCOCC2)ccc2c3n(c(=NC(=O)c4cnc(N)nc4)nc12)CCN3 | 45.5
C#Cc1c(F)ccc2cc(O)cc(-c3ncc4c(N5CC6CCC(C5)N6)nc(OCC56CCCN5CC(F)C6)nc4c3F)c12 (stereo unspecified) + CC(Nc1ccc2c(c1)OCCn1cc(N3C(=O)OCC3C(F)F)nc1-2)C(N)=O | 86

For the 6 molecules below, give their viability, T/C values.
1. CC(=O)c1c(C)c2cnc(Nc3ccc(N4CCNCC4)cn3)nc2n(C2CCCC2)c1=O + COc1c(OCCCN2CCOCC2)ccc2c3n(c(=NC(=O)c4cnc(N)nc4)nc12)CCN3
2. CNC(=O)c1ccc(N2C(=S)N(c3ccc(C#N)c(C(F)(F)F)c3)C(=O)C2(C)C)cc1F + CC(Nc1ccc2c(c1)OCCn1cc(N3C(=O)OCC3C(F)F)nc1-2)C(N)=O
3. Cn1nccc1Nc1nccc(-c2ccn(C(CO)c3ccc(Cl)c(F)c3)c(=O)c2)n1 (stereo unspecified) + Cc1nc(NC(=O)N2CCCC2C(N)=O)sc1-c1ccnc(C(C)(C)C(F)(F)F)c1
4. C=CC(=O)N1CCN(c2nc(=O)n(-c3c(C)ccnc3C(C)C)c3nc(-c4c(O)cccc4F)c(F)cc23)C(C)C1 (stereo unspecified) + Cc1nc(NC(=O)N2CCCC2C(N)=O)sc1-c1ccnc(C(C)(C)C(F)(F)F)c1
5. CC(C)n1nc(-c2ccc3oc(N)nc3c2)c2c(N)ncnc21 + CC(Nc1ccc2c(c1)OCCn1cc(N3C(=O)OCC3C(F)F)nc1-2)C(N)=O
6. CC(C)NCC(C(=O)N1CCN(c2ncnc3c2C(C)CC3O)CC1)c1ccc(Cl)cc1 (stereo unspecified) + Cc1nc(NC(=O)N2CCCC2C(N)=O)sc1-c1ccnc(C(C)(C)C(F)(F)F)c1

Reply:
1: 38.1; 2: 94; 3: 110; 4: 96.7; 5: 51.9; 6: 93.9

For the 6 molecules below, give their viability, T/C values.
1. CC1(C)CCC(Nc2ncc(C(F)(F)F)c(-c3c[nH]c4c(P(C)(C)=O)c(C#N)ccc34)n2)CN1 (stereo unspecified) + Cc1nc(NC(=O)N2CCCC2C(N)=O)sc1-c1ccnc(C(C)(C)C(F)(F)F)c1
2. Cn1ncnc1[C@H]1c2n[nH]c(=O)c3cc(F)cc(c23)N[C@@H]1c1ccc(F)cc1 + CC(Nc1ncnc2nc[nH]c12)c1cc2cccc(Cl)c2c(=O)n1-c1ccccc1
3. CC(C)NCC(C(=O)N1CCN(c2ncnc3c2C(C)CC3O)CC1)c1ccc(Cl)cc1 (stereo unspecified) + CC(Nc1ccc2c(c1)OCCn1cc(N3C(=O)OCC3C(F)F)nc1-2)C(N)=O
4. CC(=O)c1c(C)c2cnc(Nc3ccc(N4CCNCC4)cn3)nc2n(C2CCCC2)c1=O + CC(Nc1ncnc2nc[nH]c12)c1cc2cccc(Cl)c2c(=O)n1-c1ccccc1
5. CNC(=O)c1ccc(N2C(=S)N(c3ccc(C#N)c(C(F)(F)F)c3)C(=O)C2(C)C)cc1F + CC(Nc1ncnc2nc[nH]c12)c1cc2cccc(Cl)c2c(=O)n1-c1ccccc1
6. CC1(C)CCC(Nc2ncc(C(F)(F)F)c(-c3c[nH]c4c(P(C)(C)=O)c(C#N)ccc34)n2)CN1 (stereo unspecified) + CC(Nc1ccc2c(c1)OCCn1cc(N3C(=O)OCC3C(F)F)nc1-2)C(N)=O

Reply:
84.4
100
77.4
97.5
93
64.2

For the 4 molecules below, give their viability, T/C values.
1. Cn1ncnc1[C@H]1c2n[nH]c(=O)c3cc(F)cc(c23)N[C@@H]1c1ccc(F)cc1 + Cc1nc(NC(=O)N2CCCC2C(N)=O)sc1-c1ccnc(C(C)(C)C(F)(F)F)c1
2. Cn1nccc1Nc1nccc(-c2ccn(C(CO)c3ccc(Cl)c(F)c3)c(=O)c2)n1 (stereo unspecified) + COc1c(OCCCN2CCOCC2)ccc2c3n(c(=NC(=O)c4cnc(N)nc4)nc12)CCN3
3. CCCS(=O)(=O)Nc1ccc(F)c(C(=O)c2c[nH]c3ncc(-c4ccc(Cl)cc4)cc23)c1F + CC(Nc1ncnc2nc[nH]c12)c1cc2cccc(Cl)c2c(=O)n1-c1ccccc1
4. CCN1CCN(Cc2ccc(Nc3ncc(F)c(-c4cc(F)c5nc(C)n(C(C)C)c5c4)n3)nc2)CC1 + COc1c(OCCCN2CCOCC2)ccc2c3n(c(=NC(=O)c4cnc(N)nc4)nc12)CCN3

Reply:
80.8
40.2
101
39.7

For the 2 molecules below, give their viability, T/C values.
1. CC(C)n1nc(-c2ccc3oc(N)nc3c2)c2c(N)ncnc21 + Cc1nc(NC(=O)N2CCCC2C(N)=O)sc1-c1ccnc(C(C)(C)C(F)(F)F)c1
2. CC1(C)CCC(CN2CCN(c3ccc(C(=O)NS(=O)(=O)c4ccc(NCC5CCOCC5)c([N+](=O)[O-])c4)c(Oc4cnc5[nH]ccc5c4)c3)CC2)=C(c2ccc(Cl)cc2)C1 + CC(Nc1ccc2c(c1)OCCn1cc(N3C(=O)OCC3C(F)F)nc1-2)C(N)=O

Reply:
49
84.7

----------
Test system: 361931-004-R-J1-PDC multicell spheroid viability
assay text: Anticancer human tumor 361931-004-R-J1-PDC cell line growth inhibition [PI3K];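 note: spheroids exposed to agents for seven days before readout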
test context: curve of first compound; second compound 1 µM
property measured: pIC50
Give bare numbers, as −log10 of the molar value.

CC(C)NCC(C(=O)N1CCN(c2ncnc3c2C(C)CC3O)CC1)c1ccc(Cl)cc1 (stereo not given) + Cc1nc(NC(=O)N2CCCC2C(N)=O)sc1-c1ccnc(C(C)(C)C(F)(F)F)c1 | 5.97
C[C@@H](NC(=O)c1ncnc(N)c1Cl)c1ncc(C(=O)Nc2cc(C(F)(F)F)c(Cl)cn2)s1 + CC(Nc1ccc2c(c1)OCCn1cc(N3C(=O)OCC3C(F)F)nc1-2)C(N)=O | 5.23

# next compound below
Ask: Param item = CC1(C)CCC(CN2CCN(c3ccc(C(=O)NS(=O)(=O)c4ccc(NCC5CCOCC5)c([N+](=O)[O-])c4)c(Oc4cnc5[nH]ccc5c4)c3)CC2)=C(c2ccc(Cl)cc2)C1 + Cc1nc(NC(=O)N2CCCC2C(N)=O)sc1-c1ccnc(C(C)(C)C(F)(F)F)c1 ; retrieve measured pIC50.
Reply: 5.41

----------
Record form. Attribute: viability, T/C. Fill in for each entry.
System: 361931-004-R-J1-PDC multicell spheroid viability
assay text: Anticancer human tumor 361931-004-R-J1-PDC cell line growth inhibition [PI3K];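 note: spheroids exposed to agents for seven days before readout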
test context: second compound 3.16 µM; first compound 0.00316 µM; stronger effect = lower value
Answers are plain numbers, in %.

CCN1CCN(Cc2ccc(Nc3ncc(F)c(-c4cc(F)c5nc(C)n(C(C)C)c5c4)n3)nc2)CC1 + Cc1nc(NC(=O)N2CCCC2C(N)=O)sc1-c1ccnc(C(C)(C)C(F)(F)F)c1 | 75.4
CC(=O)c1c(C)c2cnc(Nc3ccc(N4CCNCC4)cn3)nc2n(C2CCCC2)c1=O + Cc1nc(NC(=O)N2CCCC2C(N)=O)sc1-c1ccnc(C(C)(C)C(F)(F)F)c1 | 76.5
CC(C)n1nc(-c2ccc3oc(N)nc3c2)c2c(N)ncnc21 + Cc1nc(NC(=O)N2CCCC2C(N)=O)sc1-c1ccnc(C(C)(C)C(F)(F)F)c1 | 83.8

For the 4 molecules below, give their viability, T/C values.
1. CC(C)n1nc(-c2ccc3oc(N)nc3c2)c2c(N)ncnc21 + CC(Nc1ncnc2nc[nH]c12)c1cc2cccc(Cl)c2c(=O)n1-c1ccccc1
2. CC(=O)c1c(C)c2cnc(Nc3ccc(N4CCNCC4)cn3)nc2n(C2CCCC2)c1=O + CC(Nc1ncnc2nc[nH]c12)c1cc2cccc(Cl)c2c(=O)n1-c1ccccc1
3. Cn1ncnc1[C@H]1c2n[nH]c(=O)c3cc(F)cc(c23)N[C@@H]1c1ccc(F)cc1 + CC(Nc1ncnc2nc[nH]c12)c1cc2cccc(Cl)c2c(=O)n1-c1ccccc1
4. Cn1ncnc1[C@H]1c2n[nH]c(=O)c3cc(F)cc(c23)N[C@@H]1c1ccc(F)cc1 + Cc1nc(NC(=O)N2CCCC2C(N)=O)sc1-c1ccnc(C(C)(C)C(F)(F)F)c1

Reply:
1. 100
2. 97.2
3. 107
4. 77.4

Ask: Param item = CCN1CCN(Cc2ccc(Nc3ncc(F)c(-c4cc(F)c5nc(C)n(C(C)C)c5c4)n3)nc2)CC1 + CC(Nc1ncnc2nc[nH]c12)c1cc2cccc(Cl)c2c(=O)n1-c1ccccc1 ; retrieve measured viability, T/C.
Reply: 109

From: PubChem BioAssay AID1963979
